molecular target: Aminopeptidase N (Sus scrofa)
Sequence (P15145 whole entry): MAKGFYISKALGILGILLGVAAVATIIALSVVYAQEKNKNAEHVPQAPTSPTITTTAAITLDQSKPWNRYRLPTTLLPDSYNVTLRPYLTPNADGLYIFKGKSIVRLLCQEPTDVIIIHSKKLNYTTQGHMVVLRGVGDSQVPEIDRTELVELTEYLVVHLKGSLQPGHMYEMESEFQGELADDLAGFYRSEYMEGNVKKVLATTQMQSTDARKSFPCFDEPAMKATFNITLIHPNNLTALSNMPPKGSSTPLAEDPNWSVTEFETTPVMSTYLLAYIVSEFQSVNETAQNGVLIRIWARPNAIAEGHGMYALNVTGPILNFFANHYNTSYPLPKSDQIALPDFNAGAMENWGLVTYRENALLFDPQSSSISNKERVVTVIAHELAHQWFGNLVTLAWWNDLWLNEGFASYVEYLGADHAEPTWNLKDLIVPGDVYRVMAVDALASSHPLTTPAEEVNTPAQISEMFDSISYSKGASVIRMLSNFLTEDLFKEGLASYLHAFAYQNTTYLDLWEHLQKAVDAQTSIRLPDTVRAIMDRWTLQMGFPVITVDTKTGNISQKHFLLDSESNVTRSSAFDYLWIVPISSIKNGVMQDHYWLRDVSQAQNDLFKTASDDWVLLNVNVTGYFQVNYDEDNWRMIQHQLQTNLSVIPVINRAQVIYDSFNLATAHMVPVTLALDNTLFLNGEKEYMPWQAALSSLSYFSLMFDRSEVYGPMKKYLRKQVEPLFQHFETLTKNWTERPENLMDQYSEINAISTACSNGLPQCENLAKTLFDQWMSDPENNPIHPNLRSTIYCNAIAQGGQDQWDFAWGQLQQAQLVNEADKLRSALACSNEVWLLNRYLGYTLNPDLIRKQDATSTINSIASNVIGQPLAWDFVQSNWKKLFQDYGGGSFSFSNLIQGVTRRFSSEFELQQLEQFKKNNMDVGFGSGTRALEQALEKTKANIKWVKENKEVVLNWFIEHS
assay.endpoint: IC50

Use the examples below as a reference point.
{"columns": ["smiles.string", "IC50"],
 "data": [
  ["CC[C@@H](C)[C@H](NC(=O)N[C@@H](CCCCNC(=O)OCc1ccccc1)C(=O)OC)C(=O)OC", "> 50 µM"],
  ["CSCC[C@H](NC(=O)N[C@@H](CCCCNC(=O)OCc1ccccc1)C(=O)O)C(=O)O", "> 50 µM"],
  ["COC(=O)[C@H](CCCCNC(=O)OCc1ccccc1)NC(=O)N[C@H](C(=O)OC)C(C)C", "> 50 µM"],
  ["O=C(CNC(=O)N[C@@H](CCCCNC(=O)OCc1ccccc1)C(=O)NO)NO", "20.4 µM"],
  ["CC(C)C[C@H](NC(=O)N[C@@H](CCCCNC(=O)OCc1ccccc1)C(=O)NO)C(=O)NO", "4.51 µM"]
]}

Input CC(C)(C)NC(=O)N[C@@H](CCCCNC(=O)OCc1ccccc1)C(=O)NO . Output IC50: > 50 µM

For this molecule ( COC(=O)[C@H](CCCCNC(=O)OCc1ccccc1)NC(=O)N[C@@H](Cc1ccccc1)C(=O)OC ), measured IC50 is > 50 µM

# IC50 of COC(=O)[C@H](CCCCNC(=O)OCc1ccccc1)NC(=O)NCCc1ccccc1 = > 50 µM

Query O=C(N[C@@H](CCCCNC(=O)OCc1ccccc1)C(=O)O)N[C@@H](Cc1ccccc1)C(=O)O yields IC50 of > 50 µM

====

test: Antiproliferative activity against human ES2 cells after 48 hrs by MTT assay; type: functional, cell-based; conditions: ES-2, 48 h
Listed next: entries and their corresponding IC50.
Please give a number only; it is taken to be in µM.

Some compounds with known IC50 results, for comparison:
{"columns": ["compound", "measurement.unit", "IC50"],
 "data": [
  ["CC(C)C[C@H](NC(=O)[C@@H](O)[C@H](N)Cc1ccccc1)C(=O)O [UBENIMEX]", "µM", 332],
  ["CC(C)C[C@H](NC(=O)N[C@@H](CCCCNC(=O)OCc1ccccc1)C(=O)NO)C(=O)NO", "µM", 291],
  ["CSCC[C@H](NC(=O)N[C@@H](CCCCNC(=O)OCc1ccccc1)C(=O)NO)C(=O)NO", "µM", 356],
  ["C[C@H](NC(=O)N[C@@H](CCCCNC(=O)OCc1ccccc1)C(=O)NO)C(=O)NO", "µM", 415]
]}

Field: next compound
Memo: O=C(N[C@@H](CCCCNC(=O)OCc1ccccc1)C(=O)NO)N[C@@H](Cc1ccccc1)C(=O)NO , reported IC50: 395
